- Assay Explanation: protein stability index of a GFP-peptide fusion (yeast GPS) (PSI 1-4); higher = more stable; sorted into four equal gates, so the index is relative within each strain
- Applied Conditions: doa10∆
For each entry below, report its protein stability index value.

Here's what some known entries look like.
In [3]: df
Out[3]:
                      sequence_chain  assay_value
0  APYRKQIISNAHNKPSL [YAR002W/NUP60]         2.17
1          TELMNRSPLVTPMDESS [SRP72]         2.52
2   ESMAYTAFQTQRTAQDR [YML031W/NDC1]         3.27

For each of the sequences below, note its protein stability index.
1. QMQQQQQAQAQAQAQAQ [GAL11]
2. KGPLLIERIGHLLSINY [PCI8]
3. VSTKMHRTIVIRRAYLH [RPS11A]
4. IRAELLNDRKVLFAAYK [RPB11]
5. GSELVQKYVGEGARMVR [RPT1]
6. VGRLWDQTFPINCNKET [ECM29]

## Result
2.1
2.35
1.37
2.18
2.57
3.03

For each of the sequences below, note its protein stability index.
1. DIETQLCSMLQEASQVT [MED11]
2. QQQQQQQQQQQQQQQQH [GAL11]
3. DRSKPVALTSFLGYKAG [RPL3]
4. TEELQTQYATSQKTKTI [SMC2]
5. ILEESLNAIILKLEKLN [SMC3]

## Result
[2.73, 2.68, 2.85, 3.5, 1.66]

For each of the sequences below, note its protein stability index.
1. DFNEIVQYLSGAHGNSD [POP3]
2. QRITIPNVCNMKQYRDF [PRP28]
3. RAVKEIKKFAKLHMGTD [RPL31A]
4. GQSAGKLAAIVEIIDQK [RPL14A]

## Result
1.24
2.85
1.7
3.28

----------
- Assay Explanation: protein stability index of a GFP-peptide fusion (yeast GPS) (PSI 1-4); higher = more stable; sorted into four equal gates, so the index is relative within each strain
- Applied Conditions: doa10∆
For each entry below, report its protein stability index value.
Answers are plain numbers.

Here's what some known entries look like.
>>> print(df.to_string())
              sequence_chain  assay_value
0   AIQMVDPASFYLFDEID [SMC3]         1.95
1  LTGEATANALPLPAVFS [RPL4A]         2.02

Now consider a different sequence.
## Task // query protein stability index value for entry SVNPAMLPGSSNGGGKV [RPO31]
## Result 2.98

----------
- Assay Explanation: protein stability index of a GFP-peptide fusion (yeast GPS) (PSI 1-4); higher = more stable; sorted into four equal gates, so the index is relative within each strain
- Applied Conditions: san1∆
Measurement Label: protein stability index
One number for each entry.

For each of the sequences below, note its protein stability index.
1. KVVIPNLLCYYNLRSLN [RPN3]
2. VADEEANIELTWAEGTF [RPC37]
3. TGNNLYDRNSNNNHKDK [SWI1]

## Result
1: 2.74; 2: 1.81; 3: 2.89

## Task // query protein stability index value for entry KKGVRVTLDITTLTIMR [RPT4]
## Result 2.23

----------
- Assay Explanation: protein stability index of a GFP-peptide fusion (yeast GPS) (PSI 1-4); higher = more stable; sorted into four equal gates, so the index is relative within each strain
- Applied Conditions: pdr5∆
For each entry below, report its protein stability index value.
Answers are plain numbers.

Here's what some known entries look like.
>>> df
              sequence_chain  assay_value
0   AILLIINLTQTYGISVV [NUT1]         1.34
1   ANQSATSTPPPPPAPHN [SNF5]         3.03
2   PINLENNDGSYGLFLKY [SRB8]         2.34
3  AARVDIGQIIFSVRTKD [RPL10]         1.67
4   NLLKDEGVTPGRIRTTR [SSN3]         2.87

Now consider a different sequence.
## Task // query protein stability index value for entry RLEFDQDRDRFFLRDTL [SNF5]
## Result 3.38
